- MEASUREMENT TARGET: Albumin (Homo sapiens, UniProt P02768)
- Sequence (P02768 whole entry): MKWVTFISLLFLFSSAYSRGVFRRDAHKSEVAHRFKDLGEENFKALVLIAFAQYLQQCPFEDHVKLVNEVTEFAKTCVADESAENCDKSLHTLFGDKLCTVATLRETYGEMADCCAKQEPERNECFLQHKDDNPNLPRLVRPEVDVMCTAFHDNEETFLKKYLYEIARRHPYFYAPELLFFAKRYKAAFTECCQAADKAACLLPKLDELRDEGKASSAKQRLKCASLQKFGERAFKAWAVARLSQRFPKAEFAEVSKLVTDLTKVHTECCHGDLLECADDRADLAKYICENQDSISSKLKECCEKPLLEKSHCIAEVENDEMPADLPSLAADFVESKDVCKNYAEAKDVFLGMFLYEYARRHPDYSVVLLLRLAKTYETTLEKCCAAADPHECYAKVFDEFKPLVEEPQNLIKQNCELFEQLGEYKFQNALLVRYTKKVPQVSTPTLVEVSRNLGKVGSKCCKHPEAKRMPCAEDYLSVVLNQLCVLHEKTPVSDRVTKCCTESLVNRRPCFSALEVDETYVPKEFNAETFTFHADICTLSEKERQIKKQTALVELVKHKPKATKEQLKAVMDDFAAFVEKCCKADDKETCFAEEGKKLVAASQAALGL
- METHOD DESCRIPTION: Binding affinity to human serum albumin at 293 K by scatchard plot analysis
- Format: ADME
- CONDITION NOTES: isolated protein
The following molecules are shown together with reported Kb values.
Unit M⁻¹ implied. Number only.

INSERT INTO measurements (compound_structure, recorded_result) VALUES
  ('CC(=O)Nc1ccc(S(=O)(=O)Cc2nc3ccccc3n2Cc2ccc(F)cc2)cc1', 58400);

Returns the measured Kb for the input molecule. Input: `CC(=O)Nc1ccc(S(=O)(=O)Cc2nc3ccccc3n2Cc2ccc(Cl)cc2Cl)cc1`
59300
